Assay Target: T1R1/T1R3 receptor (Felis catus)
Experiment: cell-based
Assay type: cell-based
Condition Notes: in the presence of 0.2 mM IMP; relative to Ala
Can you tell me Max resp % of Ala +IMP (0.2 mM) for the items I'm about to list?
Numbers only, in %.

Below: 4 compounds and their reported Max resp % of Ala +IMP (0.2 mM).
>>> df
                                   compound  endpoint_result
0  CC1CCCC(NC(=O)c2ccc3c(c2)OCO3)C1C (stereo not shown)             95.4
1           O=C(NCCc1ccccc1)C(=O)NCc1cccnc1             61.9
2            CCCC(CCC)C(=O)Nc1ccc2c(c1)OCO2            108.0
3  COc1cc(C(=O)NC(C(N)=O)c2ccccc2)cc(Cl)c1OC (stereo not shown)             49.4

I would be grateful if you could provide Max resp % of Ala +IMP (0.2 mM) for each of the following entries.
1. CCC(CC)NC(=O)/C=C/c1ccc(OC)cc1
2. CCCC(C)NC(=O)c1ccc(OC)c(C)c1 (stereo not shown)

**A:**
[171.7, 128.9]

Reported Max resp % of Ala +IMP (0.2 mM) ( CCC(CC)NC(=O)c1ccc(OC)c(OC)c1 [3,4-dimethoxy-N-(pentan-3-yl)benzamide] ) = 81.0

###

Assay Target: T1R1/T1R3 receptor (Felis catus)
Experiment: cell-based
Type: cell-based
Condition Notes: in the presence of 0.2 mM IMP
Measured Metric: Thres (mM) +IMP (0.2 mM)
One number for each entry, in mM.

Past entries and their recorded results:
In [3]: df
Out[3]:
                                   molecule           measured_metric  endpoint_result
0  CCC(CC)NC(=O)c1ccc(OC)c(OC)c1 [3,4-dimethoxy-N-(pentan-3-yl)benzamide]  Thres (mM) +IMP (0.2 mM)              0.5
1  COC(=O)C(NC(=O)/C=C/c1cccs1)C(C)C (stereo not drawn)  Thres (mM) +IMP (0.2 mM)                1
2  CCCC(C)NC(=O)/C=C/c1ccc(OC)c(OC)c1 (stereo not drawn)  Thres (mM) +IMP (0.2 mM)             0.55
3           O=C(NCCc1ccccc1)C(=O)NCc1cccnc1  Thres (mM) +IMP (0.2 mM)              0.1
4  CC1CCCC(NC(=O)c2ccc3c(c2)OCO3)C1C (stereo not drawn)  Thres (mM) +IMP (0.2 mM)            0.275

List the reported Thres (mM) +IMP (0.2 mM) of each molecule below.
1. COc1cc(C(=O)NC(C(N)=O)c2ccccc2)cc(Cl)c1OC (stereo not drawn)
2. COc1ccc(C(=O)NC(C)c2ccccc2)cc1C (stereo not drawn)
3. COc1ccc(/C=C/C(=O)NC2CCCCC2C)cc1 (stereo not drawn)
4. CSc1ccc(-c2nnn(Cc3ccccn3)n2)cc1

**A:**
1: 0.17; 2: 0.35; 3: 0.3; 4: 0.1575

###

Assay Target: cat T1R1/T1R3 receptor (Felis catus, UniProt E3UMS2)
Experiment: cell-based
Counter-ions that a name gives are not always drawn.
Tick true if Thres is 0.01 mM or greater. Tick false if Thres is less than 0.01 mM.

Compound	Class
Nc1nc2c(ncn2[C@@H]2O[C@H](COP(=O)(O)OP(=O)(O)O)[C@@H](O)[C@H]2O)c(=O)[nH]1 [Guanosine 5′-diphosphate sodium salt, Guanosine 5′-diphosphate]	true
Nc1ncnc2c1nc(Cl)n2[C@@H]1O[C@H](COP(=O)(O)O)[C@@H](O)[C@H]1O [8-Chloroadenosine-5′-O-monophosphate]	true

**Q:** Assess whether reported Thres for Nc1ncnc2c1ncn2C1OC(COP(=O)(O)O)C(OP(=O)(O)O)C1O (centres unmarked) [Adenosine 3′,5′-diphosphate sodium salt, adenosine 3′,5′-diphosphate] sits at 0.01 mM or higher.
**A:** false

**Q:** Thres >= 0.01 mM for Nc1nc2c(nc(Br)n2[C@@H]2O[C@H](COP(=O)(O)O)[C@@H](O)[C@H]2O)c(=O)[nH]1 [8-Bromoguanosine-5′-O-monophosphate] ?
**A:** true

**Q:** Is reported Thres greater than or equal to 0.01 mM here: O=c1ccn([C@H]2C[C@H](O)[C@@H](COP(O)(O)=S)O2)c(=O)[nH]1 [2′-Deoxyuridine-5′-O-monophosphosphorothioate (5′-dUMPS)]
**A:** true

**Q:** Is Thres for O=C(Nc1ncnc2c1ncn2[C@@H]1O[C@H](COP(=O)(O)O)[C@@H](O)[C@H]1O)c1ccccc1 at or above 0.01 mM?
**A:** true

**Q:** Hi team, for Nc1nc2c(ncn2[C@H]2C[C@H](OP(=O)(O)O)[C@@H](COP(=O)(O)O)O2)c(=O)[nH]1 [2′-Deoxyguanosine-3′,5′-O-bisphosphate] , is the recorded Thres at or above 0.01 mM?
**A:** false

**Q:** Test whether the compound CNc1ncnc2c1ncn2[C@H]1C[C@H](OP(=O)(O)O)[C@@H](COP(=O)(O)O)O1 [MRS 2179 ammonium salt hydrate, diammonium salt] records Thres of 0.01 mM or higher.
**A:** true

**Q:** Is it the case that O=c1[nH]cnc2c1ncn2C1CC(O)C(COP(O)(O)=S)O1 (centres unmarked) has Thres reaching or exceeding 0.01 mM?
**A:** true

**Q:** State whether the measured Thres reaches 0.01 mM, counting equality as reaching it, for Nc1ncnc2c1ncn2C1CC(O)C(COP(O)(O)=S)O1 (centres unmarked)
**A:** true
